testTarget: T1, human CD73 antigen (human, UniProt P21589 27-547)
T1 construct: also called Biotinylated Human CD73
T1 sequence (looked up): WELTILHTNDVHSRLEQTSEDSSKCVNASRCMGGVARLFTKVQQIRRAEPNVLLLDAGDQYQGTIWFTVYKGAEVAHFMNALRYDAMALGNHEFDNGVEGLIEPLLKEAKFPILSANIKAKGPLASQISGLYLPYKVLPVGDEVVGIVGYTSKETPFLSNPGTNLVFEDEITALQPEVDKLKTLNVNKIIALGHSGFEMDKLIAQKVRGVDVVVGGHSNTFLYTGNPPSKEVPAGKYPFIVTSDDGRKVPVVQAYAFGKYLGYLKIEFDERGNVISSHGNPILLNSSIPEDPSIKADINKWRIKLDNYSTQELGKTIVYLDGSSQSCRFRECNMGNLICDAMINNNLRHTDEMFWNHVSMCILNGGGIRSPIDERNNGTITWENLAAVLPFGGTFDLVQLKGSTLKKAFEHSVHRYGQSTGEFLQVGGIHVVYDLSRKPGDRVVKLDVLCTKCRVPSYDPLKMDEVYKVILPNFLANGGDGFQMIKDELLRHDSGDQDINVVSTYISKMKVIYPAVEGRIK
methodNotes: ForteBio BLI; IgG on AHQ sensor, 100 nM antigen; bivalent; 1:1 model
Quick reference: pKd of the listed items.
Scale: negative log10 of molar concentration, which is what pKd denotes.

[[record]]
binder = "ADI-34104 (antibody, human IgG4 S228P, kappa, F234A L235A, V domains shown, Parental antibody) VH: QVQLQESGPGLVKPSETLSLTCAVSGYSISSGYYWGWIRQPPGKGLEWIGSIYHSGSTYYNPSLKSRVTISVDTSKNQFSLKLSSVTAADTAVYYCARASIYTPPPEYFQHWGQGTLVTVSS VL: DIQMTQSPSTLSASVGDRVTITCRASQSISSWLAWYQQKPGKAPKLLIYDASSLESGVPSRFSGSGSGTEFTLTISSLQPDDFATYYCQQSRIYSTFGGGTKVEIKR"
valueobserved = 9.07

[[record]]
binder = "ADI-34086 (antibody, human IgG4 S228P, kappa, F234A L235A, V domains shown, Parental antibody) VH: EVQLLESGGGLVQPGGSLRLSCAASGFTFSNYAMSWVRQAPGKGLEWVSAISGSGGSTYYADSVKGRFTISRDNSKNTLYLQMNSLRAEDTAVYYCARGGPYGSGSYWDTFDYWGQGTLVTVSS VL: EIVMTQSPATLSVSPGERATLSCRASQSVSSNLAWYQQKPGQAPRLLIYGASTRATGIPARFSGSGSGTEFTLTISSLQSEDFAVYYCQQYTNHYTFGGGTKVEIKR"
valueobserved = 8.91

[[record]]
binder = "ADI-34101 (antibody, human IgG4 S228P, kappa, F234A L235A, V domains shown, Parental antibody) VH: QVQLVESGGGVVQPGRSLRLSCAASGFTFSSYGMHWVRQAPGKGLEWVAVISYEGSNKYYADSVKGRFTISRDNSKNTLYLQMNSLRAEDTAVYYCARSRYDWSLFDIWGQGTMVTVSS VL: EIVLTQSPGTLSLSPGERATLSCRASQSVSSSYLAWYQQKPGQAPRLLIYGASSRATGIPDRFSGSGSGTDFTLTISRLEPEDFAVYYCQQYVLYPFTFGGGTKVEIKR"
valueobserved = 8.97

[[record]]
binder = "ADI-34074 (antibody, human IgG4 S228P, kappa, F234A L235A, V domains shown, Parental antibody; also called AD-34074) VH: EVQLVESGGGLVQPGRSLRLSCAASGFTFDDYAMHWVRQAPGKGLEWVSGISWSSGSIGYADSVKGRFTISRDNAKNSLYLQMNSLRAEDTAVYYCAKGKYLPTGSVDYWGQGTLVTVSS VL: EIVLTQSPGTLSLSPGERATLSCRASQSVSSSYLAWYQQKPGQAPRLLIYGASSRATGIPDRFSGSGSGTDFTLTISRLEPEDFAVYYCQQYYDYPPITFGGGTKVEIKR"
valueobserved = 8.67


Turning now to a further binder:
# input binder: Oleclumab (antibody, V domains shown) VH: EVQLLESGGGLVQPGGSLRLSCAASGFTFSSYAYSWVRQAPGKGLEWVSAISGSGGRTYYADSVKGRFTISRDNSKNTLYLQMNSLRAEDTAVYYCARLGYGRVDEWGRGTLVTVSS VL: QSVLTQPPSASGTPGQRVTISCSGSLSNIGRNPVNWYQQLPGTAPKLLIYLDNLRLSGVPDRFSGSKSGTSASLAISGLQSEDEADYYCATWDDSHPGWTFGGGTKLTVL ; wanted: its pKd
9.02

Hey, just so you know, these numbers are from patent US20230312741A1.
